# TARGET_OF_ASSAY: VEGF165 (Homo sapiens, UniProt P15692-4 P15692-4:27-191)
# Sequence (P15692 other isoform, or with tags, fused parts or gaps): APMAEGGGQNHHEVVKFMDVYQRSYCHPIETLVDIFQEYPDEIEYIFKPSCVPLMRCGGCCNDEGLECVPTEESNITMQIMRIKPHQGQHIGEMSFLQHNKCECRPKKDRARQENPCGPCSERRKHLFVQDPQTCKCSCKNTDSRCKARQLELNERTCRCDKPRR
# ASSAY_DETAILS: filter; 37 C
# STATED_CONDITIONS: tags: carrier-free, Sf 21 insect cell expressed, R & D Systems; chain copies: 2 (inferred)
# Procedure: Nucleic Acid Ligands radiolabeled during transcription by incorporation of α-[³²P]-labeled NTPs, or after synthesis using γ-[³²P]-ATP and T4 polynucleotide kinase, were incubated in low concentration (between 20 and 70 pM) with varying concentrations of VEGF or other growth factors at 37° C. for 15 minutes. […] Filters were immersed in scintillant and counted to quantitate the amount of protein-bound RNA retained by each filter. […]
PARAMETER_MEASURED: Kd

                                     binder  parameter_measured  reported_result
0  VP30.12 (ssRNA, 2'-F pyrimidines) RNA: GGGAGGACGAUGCGGAAUACGGAAGAAUUGGAUACAUAUGCUCGUCAGACGACUCGCCCGA                  Kd         0.007 nM
1  VP40.11 (ssRNA, 2'-F pyrimidines) RNA: GGGAGGACGAUGCGGAAGGAAGAUGUUGAUCGUUUGACGUGAUGUGGAUCCGCGUCAGACGACUCGCCCGA                  Kd          0.98 nM
2  VP30.18 (ssRNA, 2'-F pyrimidines) RNA: GGGAGGACGAUGCGGAUCCAUCAUUUAACCGUUUGCUCUCCCCCUCAGACGACUCGCCCGA                  Kd         0.027 nM

Source of measurements: patent US20030114404
